Reported GI50 values are given for each entry in this list.
Tested on: LNCaP cells
Experiment: LNCaP cell viability assay (MTS)
Assay type: cell-based
Conditions: Homo sapiens, LNCaP, 48 h, LNCaP cell line
readout_type: GI50 (µM)

* O=S(=O)(NC(CN1CCNCC1)c1ccc(Cl)c(Cl)c1)c1ccc(OC(F)(F)F)cc1 (centres unmarked) | 6.84
* CC(NS(=O)(=O)c1ccc(OC(F)(F)F)cc1)C1(c2ccc(Br)cc2)CC1 (centres unmarked) | 25
* CN(C)CC(NS(=O)(=O)c1ccc(OC2CCC2)cc1)c1ccc(Cl)c(Cl)c1 (centres unmarked) | 16.4
* COc1cc(C2(CNS(=O)(=O)c3ccc(OC(F)(F)F)cc3)CCCC2)ccc1OC(F)F | 73.4
* CN(C)CC(NS(=O)(=O)c1ccc(Cl)cc1F)c1ccc(Cl)c(Cl)c1 (centres unmarked) | 58.5
* CN(C)CC(NS(=O)(=O)c1ccc(Cl)cc1)c1ccc(Cl)c(Cl)c1 (centres unmarked) | 28.2
* O=S(=O)(NC(CN1CCNCC1)c1ccc(Cl)cc1)c1ccc(OC(F)(F)F)cc1 (centres unmarked) | 11.6
* CN(C)CC(NS(=N)(=O)c1ccc(OC(F)(F)F)cc1)c1ccc(Cl)c(Cl)c1 (single isomer, unassigned) [Compound 165a] | 46.3
